ASSAY SYSTEM: UniProt:Q99683
PROCEDURE DETAILS: ASK1 biochemical assay (IMAP technology)
STUDY CONDITIONS: 150 μM ATP, 6 nM hASK1
Recorded Inhibition (pIC50) ASK1 for the following compounds

# example entries with known answers
| COMPOUND | ASSAY SYSTEM | VALUE |
| --- | --- | --- |
| Nc1cc(C(=O)NC2CCN(c3ccnc4[nH]cc(Cl)c34)CC2)c(F)cn1 [Compound 7] | UniProt:Q99683 | 8.24/— |
| Nc1cc(C(=O)NC2CCN(c3ncnc4[nH]cc(Cl)c34)CC2)c(F)cn1 [Compound 5] | UniProt:Q99683 | 8.43/— |
| Cc1c[nH]c2ncnc(N3CCC(NC(=O)c4cc(N)ncc4Cl)CC3)c12 [Compound 3] | UniProt:Q99683 | 8.05/— |

Then there is this compound:
Ask | Which Inhibition (pIC50) ASK1 value belongs to Cc1c[nH]c2ncc(C#N)c(N3CCC(NC(=O)c4cc(N)ncc4F)CC3)c12 [Compound 6] ?
Reply | 8.98/—

----------
Recorded Inhibition (pIC50) ASK1 for the following molecules
ASSAY SYSTEM: UniProtKB Q99683
PROCEDURE DETAILS: ASK1 biochemical assay (AlphaScreen technology, MKK7 phosphorylation)
STUDY CONDITIONS: 150 μM ATP, 400 nM MKK7, 0.8 nM ASK1

| COMPOUND STRUCTURE | ASSAY SYSTEM | Inhibition (pIC50) ASK1 |
| --- | --- | --- |
| Cc1cnc(N)cc1C(=O)NC1CCN(c2ncnc3[nH]cc(C)c23)CC1 | UniProtKB Q99683 | 8.9/— |

Ask | Which Inhibition (pIC50) ASK1 value belongs to `Cc1c[nH]c2ncc(C#N)c(N3CCC(NC(=O)c4cc(N)ncc4F)CC3)c12` ?
Reply | 8.98/—^

Ask | Which Inhibition (pIC50) ASK1 value belongs to `Nc1cc(C(=O)NC2CCN(c3ncnc4[nH]cc(Cl)c34)CC2)c(F)cn1` ?
Reply | 8.8/—

Ask | Which Inhibition (pIC50) ASK1 value belongs to `Nc1cc(C(=O)NC2CCN(c3ccnc4[nH]cc(Cl)c34)CC2)c(F)cn1` ?
Reply | 8.24/—^
